system: IGROV1 ovarian; assay: NCI tumour cell line growth inhibition, 48 h
Attribute: TGI

These recorded examples may help you get a feel for the data.
O=c1oc2ccc(Br)cc2c(=O)n1-c1ccc(Br)cc1F    11.9 µM
COc1cc2c(/C=C3\C(=O)N(C)c4ccc(O)cc43)c[nH]c2cc1C    22.3 µM
CCOC(=O)Cn1c(=O)[nH]c(=O)c2c1ncn2Cc1ccccc1    > 100 µM
Clc1nc(Cl)c2ncn(C/C=C\COc3cccc(OC/C=C\Cn4cnc5c(Cl)nc(Cl)nc54)c3)c2n1    > 100 µM
O=C(NC/C(Cl)=C/Cl)Nc1c2ccccc2nc2ccccc12    > 100 µM

// output TGI; input CN(C(=O)Nc1ccc(Cl)c(Cl)c1)C1CCCC[C@@H]1N1CCCC1 (some centres not stated) ; system IGROV1 ovarian
> 100 µM

// output TGI; input C=CCNCCN1C(=O)c2ccc3c4c(ccc(c24)C1=O)C(=O)N(CCNCC=C)C3=O ; system IGROV1 ovarian
1.67 µM

// output TGI; input O=[N+]([O-])c1ccccc1N=Nc1c(O)[nH]c2ccc(S(=O)(=O)O)cc12 ; system IGROV1 ovarian
> 100 µM

// output TGI; input COc1ccc2cc(C(=O)CCC(=O)O)ccc2c1 ; system IGROV1 ovarian
> 100 µM

// output TGI; input O=C(NCc1ccccc1)c1cc2ccc(O)c(O)c2cn1 ; system IGROV1 ovarian
44.5 µM

// output TGI; input CN=c1ss/c(=N\C(=S)N(C)C)n1-c1ccccc1 ; system IGROV1 ovarian
> 100 µM

----------
test system: TK-10 renal; assay: NCI tumour cell line growth inhibition, 48 h
readout: TGI

CSC(SC)=C(C#N)C(=O)Nc1ccc(C)cc1    > 100 µM
NC1CCCCC1N.O=C([O-])c1cc(S(=O)(=O)Nc2cc(S(=O)(=O)[O-])cc3cc(S(=O)(=O)[O-])cc(O)c23)ccc1[O-].[Pt+4]    > 100 µM

Give me measured TGI, please, for this compound: CC(C)C(N=c1c2ccccc2n(O)c2ccccc12)C(=O)O (stereo not drawn)
> 100 µM

----------
system: OVCAR-8 ovarian; experiment: NCI tumour cell line growth inhibition, 48 h
readout: TGI (µM)
// units = µM; emit number, no label

Oc1c(I)cc(I)cc1CNCCN(Cc1ccccn1)Cc1ccccn1    8.16

Consider now this further molecule.
Give me measured TGI, please, for this molecule: CCN1C(C)(C)CC(Oc2ccc(C(=O)Nc3ccc(NC(=O)Nc4cc(C(C)(C)C)on4)cc3)nc2)CC1(C)C
5.66

----------
system: SF-295 CNS; assay: NCI tumour cell line growth inhibition, 48 h
Attribute: TGI
// units = µM; emit number, no label

O=C(CC1C(=O)Nc2ccccc2S1(=O)=O)Nc1cc(Cl)ccc1Cl (stereo not given)    34.4
CC(c1ccccc1)N1O[C@]12CC[C@@]1(C)C(CCCC13OCCO3)C2 (stereo not given in full)    44.3
O=C(N=Nc1c(O)[nH]c2ccccc12)C(O)(c1ccccc1)c1ccccc1    36.3

Give me measured TGI, please, for this compound: CSc1nc(N)cc(Oc2ccc(-c3nc(Nc4cccc(C(F)(F)F)c4)n[nH]3)cc2)n1
6.24

----------
system: LXFL 529 NSCLC; assay: NCI tumour cell line growth inhibition, 48 h
readout: TGI (µM)
// units = µM; emit number, no label

[C-]#[O+].[C-]#[O+].[C-]#[O+].[C-]#[O+].[O-]C(c1ccccc1[PH+]1OC(C(F)(F)F)(C(F)(F)F)c2ccccc21)(C(F)(F)F)C(F)(F)F.[Re] (stereo not drawn)    4.26

Give me measured TGI, please, for this compound: O=C(CC1C(=O)Nc2ccccc2S1(=O)=O)Nc1cc(Cl)ccc1Cl (stereo not drawn)
27.1
